- TEST: Cytotoxicity against human SW480 cells assessed as growth inhibition at 5 mM after 48 hrs by MTT assay
- Format: cell-based
- TEST_CONTEXT: read-out: GI
VALUE_TYPE: inhibition at 48 h, 5000 µM (%)
Value expressed in %; do not type the unit.

Some molecules with recorded inhibition at 48 h, 5000 µM:
COc1ccc(C(=O)Nc2nc(C)c([C@@H]3O[C@H](CO)[C@H](O)[C@H](O)[C@H]3O)s2)cc1 50
Cc1nc(NS(=O)(=O)c2ccc3ccccc3c2)sc1[C@@H]1O[C@H](CO)[C@H](O)[C@H](O)[C@H]1O 50

Exercise: Item C/C=C/[C@@H]1O[C@H](CO)[C@H](O)[C@H](O)[C@H]1O has what recorded inhibition at 48 h, 5000 µM?
Solution: 50
